targetUnderTest: TLR8 (Homo sapiens)
experiment: HEK/293 TLR8 Cell Assay
testConditions: HEK cells, R848 agonist 30 uM final concentration, Steady-Glo readout; read-out: TLR8 potency

compound | IC50
C[C@H]1CN(c2ccc(C#N)c3nccnc23)C[C@H](CN2CCN(C)CC2)O1 [Example 231] | < 75 nM
C[C@H]1C[C@@H](NC(=O)CCS(=O)(=O)N(C)C)CN(c2ccc(C#N)c3nccnc23)C1 [Example 195] | 75 to 150 nM
C[C@H]1C[C@@H](NCCC(=O)NO)CN(c2ccc(C(F)(F)F)c3ncccc23)C1 [Example 36] | < 75 nM
C[C@H]1C[C@@H](NC(=O)CC2(F)CCN(C)CC2)CN(c2ccc(C(F)(F)F)c3ncccc23)C1 [Example 83] | < 75 nM
C[C@H](N)C(=O)N[C@@H]1C[C@H](C(F)(F)F)CN(c2ccc(C(F)(F)F)c3ncccc23)C1 [Example 171] | < 75 nM
Cc1c(F)cc(N2C[C@@H](C)C[C@@H](NC(=O)[C@@H](N)[C@@H](C)O)C2)c2cccnc12 [Example 134] | 75 to 150 nM
C[C@H]1C[C@@H](NCC2(O)CCOCC2)CN(c2ccc(C(F)(F)F)c3nccnc23)C1 [Example 26] | < 75 nM

###

Recorded measurements of IC50, one per entry
targetUnderTest: UniProt:Q9NYK1
Sequence (Q9NYK1 27-1049): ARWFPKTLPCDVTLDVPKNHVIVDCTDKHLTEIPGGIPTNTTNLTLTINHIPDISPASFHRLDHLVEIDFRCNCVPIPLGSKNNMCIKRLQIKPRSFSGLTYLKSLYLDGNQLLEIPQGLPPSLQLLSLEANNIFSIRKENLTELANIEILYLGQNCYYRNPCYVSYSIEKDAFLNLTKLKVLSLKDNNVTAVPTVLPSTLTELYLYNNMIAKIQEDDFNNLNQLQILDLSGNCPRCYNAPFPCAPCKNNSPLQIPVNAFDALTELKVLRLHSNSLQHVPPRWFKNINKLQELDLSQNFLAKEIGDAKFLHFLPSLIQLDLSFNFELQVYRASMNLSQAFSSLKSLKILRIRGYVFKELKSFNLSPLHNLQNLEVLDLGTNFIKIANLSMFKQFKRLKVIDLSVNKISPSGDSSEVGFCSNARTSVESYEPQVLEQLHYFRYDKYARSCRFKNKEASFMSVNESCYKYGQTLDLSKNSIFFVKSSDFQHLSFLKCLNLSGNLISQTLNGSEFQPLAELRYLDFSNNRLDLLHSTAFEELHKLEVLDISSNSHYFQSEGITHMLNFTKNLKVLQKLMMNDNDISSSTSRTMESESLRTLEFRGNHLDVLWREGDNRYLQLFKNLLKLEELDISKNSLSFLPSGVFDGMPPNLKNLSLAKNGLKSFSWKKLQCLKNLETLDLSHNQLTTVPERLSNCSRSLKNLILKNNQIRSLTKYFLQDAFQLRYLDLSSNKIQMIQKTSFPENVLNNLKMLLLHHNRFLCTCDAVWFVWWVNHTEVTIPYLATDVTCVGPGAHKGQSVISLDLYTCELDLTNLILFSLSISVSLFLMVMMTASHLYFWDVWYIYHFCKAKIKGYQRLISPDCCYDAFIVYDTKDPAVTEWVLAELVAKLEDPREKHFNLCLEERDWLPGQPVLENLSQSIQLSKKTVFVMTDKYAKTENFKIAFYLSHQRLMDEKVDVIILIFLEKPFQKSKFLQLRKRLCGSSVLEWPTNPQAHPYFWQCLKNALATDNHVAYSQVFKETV
experiment: HEK/293 TLR7 Cell Assay
testConditions: TLR7/NFKb HEK cells, R848 agonist 10 uM final concentration, Steady-Glo readout; read-out: TLR7 potency
measuredEndpoint: IC50

compound | experimentalValue
C[C@@H]1CN(c2ccc(C#N)c3nccnc23)C[C@H](C(=O)NC[C@@H](C)O)O1 [Example 238] | < 75 nM
C[C@H]1C[C@@H](NC(=O)CN(CCN)CCO)CN(c2ccc(C#N)c3nccnc23)C1 [Example 150] | < 75 nM
N#Cc1ccc(N2C[C@@H](C(F)(F)F)O[C@@H](C(=O)NC[C@]3(F)CCNC3)C2)c2nccnc12 (single isomer, unassigned) [Example 309] | < 75 nM
C[C@H]1C[C@@H](n2ccnn2)CN(c2ccc(C#N)c3nccnc23)C1 (racemic) [Example 153] | > 150 nM
C[C@H]1C[C@@H](n2ccnc2)CN(c2ccc(C(F)(F)F)c3nccnc23)C1 [Example 157] | > 150 nM
Cc1cc(CC(=O)N[C@@H]2C[C@H](C)CN(c3ccc(C#N)c4nccnc34)C2)on1 [Example 74] | < 75 nM
O=C(N[C@@H]1C[C@H](C(F)(F)F)CN(c2ccc(C(F)(F)F)c3ncccc23)C1)[C@@H]1CCCN1 [Example 123] | 75 to 150 nM

###

targetUnderTest: TLR8 (Homo sapiens, UniProt Q9NR97)
Sequence (Q9NR97 27-1041): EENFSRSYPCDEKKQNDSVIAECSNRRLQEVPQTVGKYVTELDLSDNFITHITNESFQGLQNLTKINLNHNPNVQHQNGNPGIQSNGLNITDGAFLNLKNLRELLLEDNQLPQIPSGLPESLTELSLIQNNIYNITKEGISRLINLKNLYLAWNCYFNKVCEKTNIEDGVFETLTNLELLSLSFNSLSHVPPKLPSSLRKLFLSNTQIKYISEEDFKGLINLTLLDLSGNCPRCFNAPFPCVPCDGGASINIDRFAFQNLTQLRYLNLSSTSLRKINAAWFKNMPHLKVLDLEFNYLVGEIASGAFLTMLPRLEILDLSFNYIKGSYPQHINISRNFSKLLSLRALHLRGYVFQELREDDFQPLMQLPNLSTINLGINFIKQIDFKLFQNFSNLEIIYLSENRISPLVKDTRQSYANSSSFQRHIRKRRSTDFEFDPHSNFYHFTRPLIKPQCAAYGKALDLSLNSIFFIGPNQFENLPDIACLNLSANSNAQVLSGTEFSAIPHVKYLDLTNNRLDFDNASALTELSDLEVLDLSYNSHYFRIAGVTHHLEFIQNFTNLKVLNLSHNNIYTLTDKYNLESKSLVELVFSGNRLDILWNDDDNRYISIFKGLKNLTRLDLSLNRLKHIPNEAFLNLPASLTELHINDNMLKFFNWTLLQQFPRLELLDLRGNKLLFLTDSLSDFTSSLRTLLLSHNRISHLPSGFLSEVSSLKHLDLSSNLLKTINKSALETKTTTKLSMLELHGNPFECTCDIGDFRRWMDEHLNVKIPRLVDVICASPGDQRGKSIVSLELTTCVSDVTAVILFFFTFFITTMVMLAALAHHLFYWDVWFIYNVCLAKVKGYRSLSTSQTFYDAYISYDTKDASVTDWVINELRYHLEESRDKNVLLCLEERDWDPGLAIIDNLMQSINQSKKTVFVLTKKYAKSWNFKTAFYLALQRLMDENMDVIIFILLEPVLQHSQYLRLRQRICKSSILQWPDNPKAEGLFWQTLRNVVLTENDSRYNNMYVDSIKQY
experiment: HEK/293 TLR8 Cell Assay
testConditions: HEK cells, R848 agonist 30 uM final concentration, Steady-Glo readout; read-out: TLR8 potency

molecule | IC50
C[C@@H]1CN(c2ccc(C#N)c3nccnc23)C[C@H](C(=O)NCC2(F)CCNCC2)O1 | < 75 nM
C[C@@H]1CN(c2ccc(C#N)c3nccnc23)C[C@H](C(=O)NC2CCNC3(CCC3)C2)O1 (stereo partly drawn) | < 75 nM
CNS(=O)(=O)CCNC(=O)[C@H]1CN(c2ccc(C#N)c3nccnc23)C[C@@H](C)O1 | < 75 nM
CC(C(=O)N[C@@H]1C[C@H](C)CN(c2ccc(C(F)(F)F)c3ncccc23)C1)N1CCN(C)CC1 (single isomer, unassigned) | < 75 nM
N#Cc1ccc(N2C[C@@H](C(=O)NC[C@H](O)CO)O[C@@H](C(F)(F)F)C2)c2nccnc12 (single isomer, unassigned) | > 150 nM
C[C@@H]1CN(c2ccc(C#N)c3nccnc23)C[C@H](C(=O)NCC2CS(=O)(=O)C2)O1 | > 150 nM
Cc1cc(CC(=O)N[C@@H]2C[C@H](C)CN(c3ccc(C#N)c4nccnc34)C2)on1 | < 75 nM
C[C@@H]1CN(c2cnc(C#N)c3ncccc23)C[C@H](C(=O)NC[C@@H]2CN(C)CCO2)O1 | < 75 nM
C[C@@H]1CN(c2ccc(C#N)c3nccnc23)C[C@H](C(=O)NC[C@H](O)C(F)(F)F)O1 | < 75 nM
CC(=O)NCCSC[C@H]1CN(c2cnc(C#N)c3ncccc23)C[C@@H](C)O1 | 75 to 150 nM
CC(=O)NCCN[C@@H]1C[C@H](C)CN(c2ccc(C(F)(F)F)c3ncccc23)C1 | < 75 nM
Cc1ccc(N2C[C@@H](C)C[C@@H](NC(=O)C(N)C3CC3)C2)c2cccnc12 (stereo partly drawn) | < 75 nM
C[C@@H]1CN(c2cnc(C#N)c3ncccc23)C[C@H](C(=O)NC2CCN(CC3CC3)C2)O1 (stereo partly drawn) | < 75 nM
C[C@@H]1CN(c2ccc(C#N)c3nccnc23)C[C@H](C(=O)NC[C@H](O)CN(C)C)O1 (single isomer, unassigned) | < 75 nM
C[C@@H]1CN(c2cnc(C#N)c3ncccc23)C[C@H](CN2CCC(N)C(F)(F)C2)O1 (stereo partly drawn) | < 75 nM

###

targetUnderTest: TLR7 (Homo sapiens)
experiment: HEK/293 TLR7 Cell Assay
testConditions: TLR7/NFKb HEK cells, R848 agonist 10 uM final concentration, Steady-Glo readout; read-out: TLR7 potency

compound | IC50
C[C@H]1C[C@@H](NC(=O)CC2(F)CCN(C)CC2)CN(c2ccc(C(F)(F)F)c3ncccc23)C1 [Example 83] | < 75 nM
C[C@@H]1CN(c2ccc(C#N)c3nccnc23)C[C@H](C(=O)NC[C@@H]2COCCN2C)O1 (single isomer, unassigned) [Example 264] | < 75 nM
C[C@H]1C[C@@H](NC(=O)[C@@H](N)CC(N)=O)CN(c2ccc(C(F)(F)F)c3nccnc23)C1 [Example 127] | 75 to 150 nM
C[C@H]1C[C@@H](NC(=O)CC2(F)CCN(C)CC2)CN(c2ccc(C#N)c3ncncc23)C1 [Example 88] | < 75 nM
C[C@H]1C[C@@H](NC(=O)[C@H](O)C(C)(C)O)CN(c2ccc(C#N)c3nccnc23)C1 [Example 162] | 75 to 150 nM
Cc1c(F)cc(N2C[C@@H](C)C[C@@H](NC(=O)CC3C4CC3CN(C)C4)C2)c2cccnc12 (stereo partly shown) [Example 112] | < 75 nM
Cc1ccc(N2C[C@@H](C)C[C@@H](NC(=O)CC3CCN(C(C)C)CC3)C2)c2cccnc12 [Example 108] | < 75 nM

###

targetUnderTest: TLR7 (Homo sapiens, UniProt Q9NYK1)
experiment: HEK/293 TLR7 Cell Assay
testConditions: TLR7/NFKb HEK cells, R848 agonist 10 uM final concentration, Steady-Glo readout; read-out: TLR7 potency
Recorded measurements of IC50, one per entry
measuredEndpoint: IC50

compound | measuredEndpoint | experimentalValue
CC(=O)NCCN[C@@H]1C[C@H](C)CN(c2ccc(C#N)c3nccnc23)C1 [Example 49] | IC50 | < 75 nM
C[C@@H]1CN(c2ccc(C#N)c3nccnc23)C[C@H](C(=O)NC[C@H](O)C(F)(F)F)O1 [Example 249] | IC50 | < 75 nM
C[C@H]1C[C@@H](NC(=O)[C@@H](N)[C@@H](C)O)CN(c2ccc(C(F)(F)F)c3ncccc23)C1 [Example 169] | IC50 | < 75 nM
CC(C(=O)N[C@@H]1C[C@H](C)CN(c2ccc(C(F)(F)F)c3ncccc23)C1)N1CCN(C)CC1 (single isomer, unassigned) [Example 92] | IC50 | < 75 nM
C[C@H]1C[C@@H](n2ccnn2)CN(c2ccc(C(F)(F)F)c3nccnc23)C1 (racemic) [Example 154] | IC50 | > 150 nM
C[C@@H]1CN(c2cnc(C#N)c3ncccc23)C[C@H](CNC(=O)[C@]2(F)CCNC2)O1 (single isomer, unassigned) [Example 337] | IC50 | < 75 nM
CC(C(=O)N[C@@H]1C[C@H](C(F)(F)F)CN(c2ccc(C#N)c3ncccc23)C1)N1CCN(C)CC1 (single isomer, unassigned) [Example 100] | IC50 | 75 to 150 nM
